target-entity: human FAAH (Homo sapiens)
Construct: made in house; host or cells: E. coli
Sequence (O00519 whole entry): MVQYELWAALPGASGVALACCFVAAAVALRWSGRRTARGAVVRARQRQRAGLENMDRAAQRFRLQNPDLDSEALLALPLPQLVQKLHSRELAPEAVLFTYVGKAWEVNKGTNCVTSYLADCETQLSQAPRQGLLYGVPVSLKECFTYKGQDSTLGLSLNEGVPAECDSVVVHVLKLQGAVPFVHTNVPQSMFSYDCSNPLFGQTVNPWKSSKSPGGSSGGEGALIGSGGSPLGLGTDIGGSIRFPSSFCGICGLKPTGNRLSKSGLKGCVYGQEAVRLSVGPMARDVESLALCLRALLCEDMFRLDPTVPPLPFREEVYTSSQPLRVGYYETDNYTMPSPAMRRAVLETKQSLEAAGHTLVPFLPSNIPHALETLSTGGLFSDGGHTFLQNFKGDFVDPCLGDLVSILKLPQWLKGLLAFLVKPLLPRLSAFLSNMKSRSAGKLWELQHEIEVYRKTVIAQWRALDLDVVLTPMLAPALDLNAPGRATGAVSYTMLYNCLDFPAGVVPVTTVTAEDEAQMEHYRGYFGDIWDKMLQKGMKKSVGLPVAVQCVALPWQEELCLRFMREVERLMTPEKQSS
test-protocol: FAAH assay, human FAAH enzyme inhibition (kinact/Ki)
Type: biochemical
measurement-setup: oleamide substrate 50 μM, 30° C., read-out: hFAAH kinact/Ki
Label y when kinact/KI is at or above 3000 M⁻¹ s⁻¹; otherwise label n.

- compound-structure: "Cc1noc(NC(=O)N2CCC3(CC2)CC(c2cccc(Oc4ccc(Br)cn4)c2)C3)c1C"
  target-entity: "human FAAH (Homo sapiens)"
  category: "n"

Please check the record "Cn1nnnc1NC(=O)N1CCC2(CC1)CC(c1cccc(C(F)(F)F)c1F)C2" and state if its kinact/KI is at or above 3000 M⁻¹ s⁻¹.
y

And what about the molecule "Cn1nnnc1NC(=O)N1CCC2(CC1)CC(c1noc(-c3ccc(OC(F)(F)F)cc3)n1)C2" ?
y

Input "Cc1noc(NC(=O)N2CCC3(CC2)CC(c2cccc4c2OC(F)(F)O4)C3)c1C"
n

Try this molecule too: "COC1(c2ccc(F)c(Cl)c2)CC2(CCN(C(=O)Nc3onc(C)c3C)CC2)C1"
n

And the next one, "CCn1nnnc1NC(=O)N1CCC2(CC1)CC(c1cccc(OC(F)(F)F)c1)C2" ?
y

Same again, this time with "Cc1noc(NC(=O)N2CCC3(CC2)CC(c2cccc(Oc4ccc(C(F)(F)F)cn4)c2)C3)c1C"
n

----------
target-entity: rat FAAH (Rattus norvegicus, UniProt P97612)
Construct: made in house; host or cells: E. coli
Sequence (P97612 whole entry): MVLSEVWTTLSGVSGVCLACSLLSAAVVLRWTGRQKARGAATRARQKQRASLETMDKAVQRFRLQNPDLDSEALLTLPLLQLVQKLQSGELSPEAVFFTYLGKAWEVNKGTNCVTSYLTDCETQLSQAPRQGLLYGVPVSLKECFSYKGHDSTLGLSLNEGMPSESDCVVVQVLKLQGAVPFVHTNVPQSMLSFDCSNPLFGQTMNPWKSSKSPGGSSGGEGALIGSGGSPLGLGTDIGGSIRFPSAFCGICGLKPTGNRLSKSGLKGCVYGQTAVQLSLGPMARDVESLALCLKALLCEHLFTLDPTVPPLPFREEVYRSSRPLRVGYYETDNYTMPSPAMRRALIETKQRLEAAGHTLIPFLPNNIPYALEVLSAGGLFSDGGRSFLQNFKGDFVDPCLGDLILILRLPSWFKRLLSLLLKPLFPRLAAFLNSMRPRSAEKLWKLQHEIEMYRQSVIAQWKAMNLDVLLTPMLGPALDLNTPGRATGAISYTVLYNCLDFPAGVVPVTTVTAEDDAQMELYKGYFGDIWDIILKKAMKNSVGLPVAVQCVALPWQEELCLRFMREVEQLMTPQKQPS
test-protocol: FAAH assay, rat FAAH enzyme inhibition (kinact/Ki)
Type: biochemical
measurement-setup: oleamide substrate 50 μM, 30° C., read-out: rFAAH kinact/Ki
Items are presented alongside their recorded kinact/KI.
Numeric answer only, unit M⁻¹ s⁻¹ assumed.

Here are 2 molecules together with their reported answers.
- compound-structure: "Cn1nnnc1NC(=O)N1CCC2(CC1)CC(c1cccc(F)c1F)C2"
  unit-annotation: "M⁻¹ s⁻¹"
  data-value: 1940
- compound-structure: "Cc1noc(NC(=O)N2CCC3(CC2)CC(c2cccc(OCCOc4ccccc4Cl)c2)C3)c1C"
  unit-annotation: "M⁻¹ s⁻¹"
  data-value: 1810

Returns the measured kinact/KI for the input molecule. Input: "Cc1cc(F)cc(C2CC3(CCN(C(=O)Nc4onc(C)c4C)CC3)C2)c1"
1560

Same again, this time with "Cc1noc(NC(=O)N2CCC3(CC2)CC(c2ccc(F)c(Cl)c2)C3)c1C"
5820

----------
target-entity: rat FAAH (Rattus norvegicus, UniProt P97612)
Construct: made in house; host or cells: E. coli
test-protocol: FAAH assay, rat FAAH enzyme inhibition (kinact/Ki)
Type: biochemical
measurement-setup: oleamide substrate 50 μM, 30° C., read-out: rFAAH kinact/Ki
Reported values of kinact/KI for individual entries
Give your result as the value with the unit written after it.

- molecule: "Cn1nnnc1NC(=O)N1CCC2(CC1)CC(c1noc(-c3ccc(OC(F)(F)F)cc3)n1)C2 [Example 50]"
  kinact/KI: "3530 M⁻¹ s⁻¹"
- molecule: "O=C(Nc1noc2ccccc12)N1CCC2(CC1)CC(c1cccc(Oc3ccc(C(F)(F)F)cn3)c1)C2 [Example 3]"
  kinact/KI: "4920 M⁻¹ s⁻¹"
- molecule: "Cc1noc(NC(=O)N2CCC3(CC2)CC(c2cccc(C(F)(F)F)c2F)C3)c1C [Example 30]"
  kinact/KI: "2340 M⁻¹ s⁻¹"

Continue with the next molecule.
Which kinact/KI is reported with rat FAAH (Rattus norvegicus, UniProt P97612) for this entry: O=C(Nc1cccnn1)N1CCC2(CC1)CC(c1cccc(Oc3ccc(C(F)(F)F)cn3)c1)C2 [Example 1] ?
647 M⁻¹ s⁻¹

These entries and their values trace back to patent US20100113465A1.
